# assay: Solubility of Form A at 20° C. and 40° C.
# Assay type: physicochemical
# assayContext: organic solvent or mixture, thermodynamic from solid; THF, 40° C., stirred 2 days
valueType: solubility at 2 days (µg/mL)
The answer is to be given in µg/mL; state only the numeric part.

Recorded solubility at 2 days (molecule CCCN(CCC)C(=O)C1=Cc2ccc(-c3ccc(C(=O)N4CCCC4)cc3)cc2N=C(N)C1 [Form A] ): 7700

====

# assay: Solubility of Form A at 20° C. and 40° C.
# Type: physicochemical
# assayContext: organic solvent or mixture, thermodynamic from solid; Toluene/MeOH 7:3 v/v, 40° C.; clear solution with 10 vol of solvent mix
valueType: solubility at 2 days

Value of measured solubility at 2 days for the entry CCCN(CCC)C(=O)C1=Cc2ccc(-c3ccc(C(=O)N4CCCC4)cc3)cc2N=C(N)C1 [Form A] : > 100 mg/mL
